So I've got a bunch of molecules here, and I need their cytotoxicity at 10 µM values.
TEST PROTOCOL: Toxicity liver stage against HepG2, at 10uM
Type: cell-based
Set-up: test concentration 10 uM, cell line HepG2-A16-CD81EGFP
TEST SETTINGS: human, HepG2-A16-CD81EGFP cells; read-out: INHIBITION
Form entry: value (%) — number only.

Need cytotoxicity at 10 µM of Cc1cnn(CC2CCCN2C(=O)CN(C)C2CC2)c1 (stereo not drawn) , thanks. 3.63

Need cytotoxicity at 10 µM of O=C1CC(NS(=O)(=O)N2CCOCC2)CN1Cc1ccc(F)cc1 (stereo not drawn) , thanks. -11

Need cytotoxicity at 10 µM of Cc1noc([C@@H]2C[C@H](NC(=O)C3CCCCC3)CN2C)n1 , thanks. -4.89

###

TEST PROTOCOL: Toxicity liver stage against HepG2, at 10uM
Type: cell-based
Design: test concentration 10 uM, cell line HepG2-A16-CD81EGFP
TEST SETTINGS: human, HepG2-A16-CD81EGFP cells; read-out: INHIBITION
So I've got a bunch of compounds here, and I need their cytotoxicity at 10 µM values.
Form entry: value (%) — number only.

Need cytotoxicity at 10 µM of CN(C)C(=O)c1ccc2ccc(N3CCN(CC4CC4)CC3)n2c1 , thanks. 4.14

Need cytotoxicity at 10 µM of O=C1C[C@H]2[C@@H](CCN2C(=O)Cc2cccs2)N1Cc1ccncc1 , thanks. 6.12

Need cytotoxicity at 10 µM of O=C(CN1C(=O)CCNC1=O)N1CCOC(c2ccc(Cl)c(Cl)c2)C1 (configuration not stated) , thanks. 6.28

Need cytotoxicity at 10 µM of Cc1noc(C)c1CN1CC[C@H]2O[C@@H](C(=O)N3CCCC3)CC[C@H]21 , thanks. 3.35

Need cytotoxicity at 10 µM of Fc1ccc(CN2CCn3cc(Cn4cccn4)nc3C2)cc1 , thanks. 0.864

Need cytotoxicity at 10 µM of Cc1ccc(Cl)c(C(C(=O)O)N(C)Cc2cnn(C)c2)c1 (configuration not stated) , thanks. -11

Need cytotoxicity at 10 µM of COC(=O)CN1CCC(C(=O)c2cc(F)ccc2F)CC1 , thanks. -6.52

Need cytotoxicity at 10 µM of Cc1nc(-c2ccc(C(=O)O)cc2)cc(C2CCCN(C(C)C)C2)n1 (configuration not stated) , thanks. -10.2

Need cytotoxicity at 10 µM of O=C(CCC(=O)N1CCNC(=O)C1c1cccc(F)c1)NC1CCCC1 (configuration not stated) , thanks. 2.68

Need cytotoxicity at 10 µM of COc1cccc([C@@H]2CN(C3CSCCSC3)C[C@H]2C(=O)O)c1 , thanks. 2.95

Need cytotoxicity at 10 µM of Cc1cnc(N2CCC3(CC2)COCCN(C(C)C)C3)nc1 , thanks. -121

Need cytotoxicity at 10 µM of CNc1cc(CCNS(=O)(=O)c2ccccc2)nc(-c2ccccn2)n1 , thanks. 5.13

Need cytotoxicity at 10 µM of CCOCC1CN(Cc2ccccn2)Cc2nn(CC3CC3)cc21 (configuration not stated) , thanks. -0.966

Need cytotoxicity at 10 µM of CCC(C)NC(=O)c1nnn(-c2ccc(Br)cc2)n1 (configuration not stated) , thanks. 5.81

Need cytotoxicity at 10 µM of Cn1cc(C[C@H]2[C@@H](OCC3CC3)CCN2C(=O)c2ccc[nH]2)cn1 , thanks. -72.7

Need cytotoxicity at 10 µM of CCC(NC(=O)c1nn(C)cc1C(=O)O)c1ccc(C)cc1 (configuration not stated) , thanks. -3.42

Need cytotoxicity at 10 µM of O=C(CN1CCC(c2ccccc2)CC1)NCc1cc2n(n1)CCNC2 , thanks. 3.03

Need cytotoxicity at 10 µM of Cc1ccc(CN2CCN(CC(=O)N(C)C)[C@@H]3CS(=O)(=O)C[C@@H]32)cc1C , thanks. 1.18

Need cytotoxicity at 10 µM of COCC1CN(Cc2ccc(C)o2)Cc2cnn(CC3CCOCC3)c21 (configuration not stated) , thanks. 1.87

Need cytotoxicity at 10 µM of Cc1nc(CC(=O)N2CCCC(N(C)Cc3ccccc3)C2)cs1 (configuration not stated) , thanks. 9.38

Need cytotoxicity at 10 µM of CN1C(=O)[C@@H]2CC[C@H]1CN(C(=O)Nc1cccc3ccccc13)C2 , thanks. -2.69

Need cytotoxicity at 10 µM of COCCN1CCC(CNC(=O)C2(c3cccc(C)c3)CC2)C1 (configuration not stated) , thanks. -4.28

Need cytotoxicity at 10 µM of CCCOc1cc(C)ccc1NC(=O)N(C)C , thanks. -4.59

Need cytotoxicity at 10 µM of Cn1cc(C(=O)N[C@@H]2CN(Cc3ccoc3)[C@@H]3CCCO[C@@H]32)cn1 , thanks. -104

Need cytotoxicity at 10 µM of CS(=O)(=O)N1C[C@@H](O)[C@H](N2CCN(c3ccccc3)CC2)C1 , thanks. 20.3

Need cytotoxicity at 10 µM of CCCC(=O)NC1CCCN(c2nc3ccccc3cc2CO)C1 (configuration not stated) , thanks. -44.5

Need cytotoxicity at 10 µM of CC(C)(C)Nc1c(C2CCN(C(=O)C3CC3)CC2)nc2ccccn12 , thanks. 4.58

Need cytotoxicity at 10 µM of Cc1nnc(N2CC[C@H]3O[C@H](C(=O)NCc4ccccn4)CC[C@H]32)s1 , thanks. -66.4

Need cytotoxicity at 10 µM of CC(NC(=O)CSCC#N)c1cccc(Cl)c1 (configuration not stated) , thanks. -3.06

Need cytotoxicity at 10 µM of CC(=O)N1CCCC1c1cccc(Oc2ccccc2F)n1 (configuration not stated) , thanks. -2.53

Need cytotoxicity at 10 µM of CN(C)CCn1ccc2cc(NC(=O)NCc3ncnn3C)ccc21 , thanks. -6.52

Need cytotoxicity at 10 µM of CCN(Cc1noc(CC(C)C)n1)Cc1ccccc1Cl , thanks. -50.6

###

So I've got a bunch of molecules here, and I need their cytotoxicity at 10 µM values.
TEST PROTOCOL: Toxicity liver stage against HepG2, at 10uM
Format: cell-based
Set-up: test concentration 10 uM, cell line HepG2-A16-CD81EGFP
TEST SETTINGS: human, HepG2-A16-CD81EGFP cells; read-out: INHIBITION
Form entry: value (%) — number only.

Need cytotoxicity at 10 µM of CC1CCCCN1c1nc2c(c(=O)[nH]1)CCN(Cc1ccc(O)cc1)C2 (configuration not stated) , thanks. 5.74

Need cytotoxicity at 10 µM of O=S(=O)(C1CC1)N1CCC2(CC1)COC(COc1ccccn1)C2 (configuration not stated) , thanks. 3.35

Need cytotoxicity at 10 µM of CC(O)CN1CCN(Cc2cccc(C(=O)N(C)C)c2)CC1 (configuration not stated) , thanks. -3.93

Need cytotoxicity at 10 µM of O[C@@]1(CN2CCN(Cc3ccncc3)CC2)CCCN2CCCC[C@@H]21 , thanks. 8.91

Need cytotoxicity at 10 µM of COc1ccc(Oc2cc(CN)ccn2)cc1 , thanks. 3.98

Need cytotoxicity at 10 µM of COCc1c(C(=O)N2CCCC(C(=O)c3nccn3C)C2)noc1C (configuration not stated) , thanks. 15.8

Need cytotoxicity at 10 µM of COc1ccc(C(=O)NC2COc3ccccc3C2)cc1OCC(=O)O (configuration not stated) , thanks. -2.18

Need cytotoxicity at 10 µM of CC(c1ccc(Cl)cc1)N1CCN(CCCS(C)(=O)=O)CC1 (configuration not stated) , thanks. -8.73

Need cytotoxicity at 10 µM of Cc1ccsc1CN(C)c1cc(N2CCOCC2)ncn1 , thanks. -0.33

Need cytotoxicity at 10 µM of Cc1ccc(NC2CCN(C(=O)CCC3CCCO3)CC2)nn1 (configuration not stated) , thanks. -1.2

Need cytotoxicity at 10 µM of CCOC(=O)NC(=O)CSC(C)c1ccccc1F (configuration not stated) , thanks. -15.1

Need cytotoxicity at 10 µM of CS(=O)(=O)N1CCCC1CS(=O)(=O)c1ccccc1 (configuration not stated) , thanks. 1.01

Need cytotoxicity at 10 µM of Cc1nc(CCC(=O)NC2CCC2)cc(C2CCCNC2)n1 (configuration not stated) , thanks. 1.09

Need cytotoxicity at 10 µM of O=C(NC1CCS(=O)(=O)C1)c1ccc(SCc2cscn2)cc1 (configuration not stated) , thanks. -1.23

Need cytotoxicity at 10 µM of COc1ccccc1[C@@H]1CN(Cc2cnc(N(C)C)nc2)C[C@H]1C(=O)O , thanks. -3.89

Need cytotoxicity at 10 µM of CC(=O)N1CCN(c2nc3c(cnn3C(C)(C)C)c(=O)[nH]2)CC1 , thanks. -17.9

Need cytotoxicity at 10 µM of Cc1ccnc(NC(=O)c2[nH]nc(C(C)C)c2Br)c1 , thanks. 12.9

Need cytotoxicity at 10 µM of Cc1nn(C)c(C)c1NC(=O)CCn1ncc2ccc(Cl)cc21 , thanks. 7.38

Need cytotoxicity at 10 µM of COC(=O)c1ccoc1CN(C)Cc1cc(OC)c(OC)cc1C , thanks. -1.06

Need cytotoxicity at 10 µM of COCc1nn(CC2CC2)c2c1CN(Cc1cncn1C)CC2 , thanks. 3.94

Need cytotoxicity at 10 µM of COCCN(CCOC)C(=O)c1ccn(-c2ccccc2Cl)n1 , thanks. -1.59

Need cytotoxicity at 10 µM of O=C1CC2(CCCCC2)C(=O)N1CC(O)COCc1ccccc1F (configuration not stated) , thanks. 0.611

Need cytotoxicity at 10 µM of COc1ccccc1C(O)Cn1cc(C(=O)NCC2CC2)nn1 (configuration not stated) , thanks. -2.62

Need cytotoxicity at 10 µM of CC(C)C(=O)N1CCCC(c2ncncc2-c2ccncc2)C1 (configuration not stated) , thanks. -6.62

Need cytotoxicity at 10 µM of CCc1ccc(C(=O)O)cc1S(=O)(=O)Nc1ccc2c(c1)OCCO2 , thanks. -4.07

Need cytotoxicity at 10 µM of O=C(NCc1cc[nH]n1)NCC(O)COc1cccc(F)c1 (configuration not stated) , thanks. 10.3

Need cytotoxicity at 10 µM of O[C@H]1[C@H](NCCc2cnccn2)c2ccccc2C12CCNCC2 , thanks. -7.32

Need cytotoxicity at 10 µM of Cc1cc(C)n(C(=O)c2cn(C)nc2S(=O)(=O)N2CCSCC2)n1 , thanks. -2.64

Need cytotoxicity at 10 µM of CC(=O)N1CCC(CN2CCN(Cc3nccn3C)C(C)C2)CC1 (configuration not stated) , thanks. -15.4

Need cytotoxicity at 10 µM of CN(C)C(CNC(=O)c1cc2c([nH]c1=O)CCCC2=O)c1ccsc1 (configuration not stated) , thanks. -1.96

Need cytotoxicity at 10 µM of CC(C)(C)n1nc(C2CC2)cc1C(=O)NC1CCN(CC(N)=O)CC1 , thanks. -2.06

Need cytotoxicity at 10 µM of CC(=O)N1CCC(NC2(Cc3cc(CC(C)C)on3)COC2)CC1 , thanks. 2.8

Need cytotoxicity at 10 µM of Cc1n[nH]c(C)c1CNC(=O)N(Cc1ccccc1)CC(C)(C)O , thanks. 1.72

Need cytotoxicity at 10 µM of c1ccc(CN2CCC3(CC2)CCN(Cc2cccnc2)C3)nc1 , thanks. -78.6

Need cytotoxicity at 10 µM of Cc1cc(C)n(C2CN(C(=O)Cn3c(C)cc(=O)c4ccccc43)C2)n1 , thanks. -5.56

Need cytotoxicity at 10 µM of N#CC1(NC(=O)COc2cc(Cl)cc(Cl)c2)CCOCC1 , thanks. -2.53

Need cytotoxicity at 10 µM of CCC(NC(=O)c1nn(C)cc1C(=O)O)c1ccccc1 (configuration not stated) , thanks. -7.41

Need cytotoxicity at 10 µM of CCN(CC)C(=O)CN1CCCC1c1nc(C)c2c(n1)N(C)C(=O)CC2 (configuration not stated) , thanks. 3.1

Need cytotoxicity at 10 µM of CNCC(=O)N1CCCC(c2nccnc2Oc2cccc(F)c2)C1 (configuration not stated) , thanks. 6.87

Need cytotoxicity at 10 µM of CC(C)c1nc(C2CCCN2c2ncc(C(N)=O)cc2Cl)no1 (configuration not stated) , thanks. 13.4

Need cytotoxicity at 10 µM of CS(=O)(=O)N1CCOCC2(CN(Cc3ccccn3)CCO2)C1 (configuration not stated) , thanks. 3.42

Need cytotoxicity at 10 µM of Cc1ncsc1-c1nnc(C2CCN(Cc3ccccc3F)CC2)o1 , thanks. -10.2

Recorded values, source ChEMBL document CHEMBL4513216.
